biological target: UniProt:P41149; test: cAMP based functional bioassay (CRE/β-galactosidase reporter), agonist activity at mMC5R
Sequence (P41149 whole entry): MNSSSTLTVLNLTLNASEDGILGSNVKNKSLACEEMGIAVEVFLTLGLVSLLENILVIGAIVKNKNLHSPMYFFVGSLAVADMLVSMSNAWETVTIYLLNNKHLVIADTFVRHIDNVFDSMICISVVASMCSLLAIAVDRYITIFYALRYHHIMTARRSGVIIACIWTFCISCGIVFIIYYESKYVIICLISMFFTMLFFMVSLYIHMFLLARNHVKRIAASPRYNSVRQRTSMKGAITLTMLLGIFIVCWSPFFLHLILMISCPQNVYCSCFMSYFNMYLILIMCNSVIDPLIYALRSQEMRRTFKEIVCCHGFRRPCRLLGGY
pEC50: −log10 of the molar value.
Recorded metric: pEC50

{"Compound": "CCC[C@@H]1CN([C@H](CC2CCCCC2)CN2CCC[C@H]2CN2C(=N)NC[C@H]2CC(C)C)C(=N)N1CC12CC3CC(CC(C3)C1)C2", "Reported result": 6.33}
{"Compound": "CC(C)C[C@@H]1CNC(=N)N1C[C@@H]1CCCN1C[C@@H](Cc1ccccc1)N1C[C@@H]([C@@H](C)O)N(CC2CCC(C(C)(C)C)CC2)C1=N (stereo partly drawn)", "Reported result": 6.28}
{"Compound": "CC(C)CCCN1C(=N)N([C@H](CC2CCCCC2)CN2CCC[C@H]2CN2C(=N)NC[C@H]2CC(C)C)C[C@H]1C(C)C", "Reported result": 5.73}
{"Compound": "CC(C)[C@@H]1CNC(=N)N1C[C@@H]1CCCN1C[C@@H](CC1CCCCC1)N1C[C@@H]([C@@H](C)O)N(CC23CC4CC(CC(C4)C2)C3)C1=N", "Reported result": 6.22}
{"Compound": "CC(C)[C@@H]1CNC(=N)N1C[C@@H]1CCCN1C[C@@H](Cc1ccccc1)N1C[C@@H](C(C)C)N(CC23CC4CC(CC(C4)C2)C3)C1=N", "Reported result": 6.18}
{"Compound": "CC(C)C[C@@H]1CNC(=N)N1C[C@@H]1CCCN1C[C@@H](CC1CCCCC1)N1C[C@@H](C(C)C)N(CC2CCC(C(C)(C)C)CC2)C1=N (stereo partly drawn)", "Reported result": 6.25}
{"Compound": "CCC[C@@H]1CN([C@H](Cc2ccccc2)CN2CCC[C@H]2CN2C(=N)NC[C@H]2CC(C)C)C(=N)N1CC1CCC(C(C)(C)C)CC1 (stereo partly drawn)", "Reported result": 6.32}
{"Compound": "CC(C)[C@@H]1CNC(=N)N1C[C@@H]1CCCN1C[C@@H](Cc1ccccc1)N1C[C@@H](C(C)C)N(CC2CCC(C(C)(C)C)CC2)C1=N (stereo partly drawn)", "Reported result": 6.22}
{"Compound": "CC(C)[C@@H]1CNC(=N)N1C[C@@H]1CCCN1C[C@@H](CC1CCCCC1)N1C[C@@H](C(C)C)N(CC23CC4CC(CC(C4)C2)C3)C1=N", "Reported result": 6.24}
{"Compound": "CC(C)C[C@@H]1CNC(=N)N1C[C@@H]1CCCN1C[C@@H](CC1CCCCC1)N1C[C@@H](C(C)C)N(CC23CC4CC(CC(C4)C2)C3)C1=N", "Reported result": 6.30}
{"Compound": "CCC[C@@H]1CN([C@H](Cc2ccccc2)CN2CCC[C@H]2CN2C(=N)NC[C@H]2C(C)C)C(=N)N1CC12CC3CC(CC(C3)C1)C2", "Reported result": 5.18}
{"Compound": "CCC[C@@H]1CN([C@H](CC2CCCCC2)CN2CCC[C@H]2CN2C(=N)NC[C@H]2CC(C)C)C(=N)N1CCCC(C)C", "Reported result": 5.74}

---

target: mMC1R (Mus musculus, UniProt Q01727); test: cAMP based functional bioassay (CRE/β-galactosidase reporter), agonist activity at mMC1R
Sequence (Q01727 whole entry): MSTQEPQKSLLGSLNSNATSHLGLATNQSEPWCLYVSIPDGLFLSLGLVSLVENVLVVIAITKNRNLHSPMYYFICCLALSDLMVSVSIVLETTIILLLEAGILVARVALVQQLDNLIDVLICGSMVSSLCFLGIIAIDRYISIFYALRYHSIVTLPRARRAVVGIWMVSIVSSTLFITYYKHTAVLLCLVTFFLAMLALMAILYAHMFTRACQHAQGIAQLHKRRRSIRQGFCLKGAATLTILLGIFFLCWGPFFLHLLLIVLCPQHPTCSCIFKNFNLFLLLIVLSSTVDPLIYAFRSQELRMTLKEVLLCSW
Recorded metric: log10(EC50) (log10 of the value in nM)

{"Compound": "CC(C)C[C@@H]1CNC(=N)N1C[C@@H]1CCCN1C[C@@H](CC1CCCCC1)N1C[C@@H](C(C)C)N(CC23CC4CC(CC(C4)C2)C3)C1=N", "log10(EC50)": 2.76}
{"Compound": "CCC[C@@H]1CN([C@H](CC2CCCCC2)CN2CCC[C@H]2CN2C(=N)NC[C@H]2C(C)C)C(=N)N1CC12CC3CC(CC(C3)C1)C2", "log10(EC50)": 2.74}
{"Compound": "CC(C)CCCN1C(=N)N([C@H](CC2CCCCC2)CN2CCC[C@H]2CN2C(=N)NC[C@H]2C(C)C)C[C@H]1[C@@H](C)O", "log10(EC50)": 2.85}
{"Compound": "CC(C)[C@@H]1CNC(=N)N1C[C@@H]1CCCN1C[C@@H](Cc1ccccc1)N1C[C@@H]([C@@H](C)O)N(CC2CCC(C(C)(C)C)CC2)C1=N (stereo partly shown)", "log10(EC50)": 2.78}
{"Compound": "CCC[C@@H]1CN([C@H](Cc2ccccc2)CN2CCC[C@H]2CN2C(=N)NC[C@H]2C(C)C)C(=N)N1CCCC(C)C", "log10(EC50)": 4.36}
{"Compound": "CCC[C@@H]1CN([C@H](CC2CCCCC2)CN2CCC[C@H]2CN2C(=N)NC[C@H]2CC(C)C)C(=N)N1CCCC(C)C", "log10(EC50)": 3.36}
{"Compound": "CC(C)C[C@@H]1CNC(=N)N1C[C@@H]1CCCN1C[C@@H](Cc1ccccc1)N1C[C@@H](C(C)C)N(CC2CCC(C(C)(C)C)CC2)C1=N (stereo partly shown)", "log10(EC50)": 3.83}
{"Compound": "CCC[C@@H]1CN([C@H](Cc2ccccc2)CN2CCC[C@H]2CN2C(=N)NC[C@H]2CC(C)C)C(=N)N1CC12CC3CC(CC(C3)C1)C2", "log10(EC50)": 3.85}
{"Compound": "CC(C)[C@@H]1CNC(=N)N1C[C@@H]1CCCN1C[C@@H](Cc1ccccc1)N1C[C@@H](C(C)C)N(CC2CCC(C(C)(C)C)CC2)C1=N (stereo partly shown)", "log10(EC50)": 4.46}
{"Compound": "CC(C)CCCN1C(=N)N([C@H](CC2CCCCC2)CN2CCC[C@H]2CN2C(=N)NC[C@H]2C(C)C)C[C@H]1C(C)C", "log10(EC50)": 3.79}
{"Compound": "CC(C)[C@@H]1CNC(=N)N1C[C@@H]1CCCN1C[C@@H](CC1CCCCC1)N1C[C@@H](C(C)C)N(CC23CC4CC(CC(C4)C2)C3)C1=N", "log10(EC50)": 2.48}
{"Compound": "CC(C)[C@@H]1CNC(=N)N1C[C@@H]1CCCN1C[C@@H](CC1CCCCC1)N1C[C@@H]([C@@H](C)O)N(CC23CC4CC(CC(C4)C2)C3)C1=N", "log10(EC50)": 2.30}
{"Compound": "CC(C)C[C@@H]1CNC(=N)N1C[C@@H]1CCCN1C[C@@H](CC1CCCCC1)N1C[C@@H]([C@@H](C)O)N(CC2CCC(C(C)(C)C)CC2)C1=N (stereo partly shown)", "log10(EC50)": 2.48}

---

biological target: mMC3R (Mus musculus, UniProt P33033); experiment: cAMP based functional bioassay (CRE/β-galactosidase reporter), agonist activity at mMC3R; conditions: reported where receptor not activated to full activity
Sequence (P33033 whole entry): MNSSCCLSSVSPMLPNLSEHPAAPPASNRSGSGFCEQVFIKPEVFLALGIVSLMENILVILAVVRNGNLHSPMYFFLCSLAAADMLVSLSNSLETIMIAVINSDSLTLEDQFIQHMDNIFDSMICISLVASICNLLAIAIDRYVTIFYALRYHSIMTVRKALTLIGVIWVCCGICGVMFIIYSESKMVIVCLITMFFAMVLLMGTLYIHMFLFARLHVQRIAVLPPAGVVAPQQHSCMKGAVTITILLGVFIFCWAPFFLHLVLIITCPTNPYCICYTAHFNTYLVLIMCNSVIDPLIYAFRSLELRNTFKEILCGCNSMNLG
Recorded metric: mMC3R Activity @ 10 μM (relative activity, percent) (%)

{"Compound": "CC(C)CCCN1C(=N)N([C@H](CC2CCCCC2)CN2CCC[C@H]2CN2C(=N)NC[C@H]2CC(C)C)C[C@H]1C(C)C", "Unit of measurement": "%", "Reported result": 33}
{"Compound": "CCC[C@@H]1CN([C@H](Cc2ccccc2)CN2CCC[C@H]2CN2C(=N)NC[C@H]2CC(C)C)C(=N)N1CC12CC3CC(CC(C3)C1)C2", "Unit of measurement": "%", "Reported result": 74}
{"Compound": "CCC[C@@H]1CN([C@H](CC2CCCCC2)CN2CCC[C@H]2CN2C(=N)NC[C@H]2CC(C)C)C(=N)N1CC12CC3CC(CC(C3)C1)C2", "Unit of measurement": "%", "Reported result": 67}
{"Compound": "CC(C)C[C@@H]1CNC(=N)N1C[C@@H]1CCCN1C[C@@H](Cc1ccccc1)N1C[C@@H](C(C)C)N(CC2CCC(C(C)(C)C)CC2)C1=N (stereo partly shown)", "Unit of measurement": "%", "Reported result": 62}
{"Compound": "CC(C)C[C@@H]1CNC(=N)N1C[C@@H]1CCCN1C[C@@H](Cc1ccccc1)N1C[C@@H](C(C)C)N(CC23CC4CC(CC(C4)C2)C3)C1=N", "Unit of measurement": "%", "Reported result": 67}
{"Compound": "CC(C)C[C@@H]1CNC(=N)N1C[C@@H]1CCCN1C[C@@H](CC1CCCCC1)N1C[C@@H](C(C)C)N(CC23CC4CC(CC(C4)C2)C3)C1=N", "Unit of measurement": "%", "Reported result": 70}
{"Compound": "CCC[C@@H]1CN([C@H](CC2CCCCC2)CN2CCC[C@H]2CN2C(=N)NC[C@H]2CC(C)C)C(=N)N1CCCC(C)C", "Unit of measurement": "%", "Reported result": 58}
{"Compound": "CCC[C@@H]1CN([C@H](CC2CCCCC2)CN2CCC[C@H]2CN2C(=N)NC[C@H]2CC(C)C)C(=N)N1CC1CCC(C(C)(C)C)CC1 (stereo partly shown)", "Unit of measurement": "%", "Reported result": 75}
{"Compound": "CC[C@H](C)[C@@H]1CNC(=N)N1C[C@@H]1CCCN1C[C@@H](Cc1ccccc1)N1CC(Cc2ccc(O)cc2)N(CC2CCC(C(C)(C)C)CC2)C1=N (stereo partly shown)", "Unit of measurement": "%", "Reported result": 65}
{"Compound": "CC(C)CCCN1C(=N)N([C@H](CC2CCCCC2)CN2CCC[C@H]2CN2C(=N)NC[C@H]2CC(C)C)C[C@H]1[C@H](C)O", "Unit of measurement": "%", "Reported result": 58}
